- target.or.system: epidermal growth factor receptor (EGFR)
- experimental.details: binding affinity, method not stated
endpoint.label: Kd

Value of Kd reported for the binder YHWYGYTPQNVI [peptide "E", binding motif for EGFR, …] is 459 µM

Source listed as patent US20250387497A1.
